Recorded values, source patent US9090599B2.

Tested on: ABCA1 protein
Method notes: Detection of upregulation of ABCA1 protein in THP-1 macrophage cells (ApoA-I binding, high content imaging)
Type: cell-based
Protocol conditions: 24 hrs with compound, AlexaFluor 647 ApoA-I binding, read-out: ABCA1 protein increasing efficacy EC50
Examples of compounds with documented EC50 follow.
Measured quantity: EC50 (nM)

• Cc1cc(-c2cc(C(=O)NCc3csc(C4CC4)n3)cnc2OCC(F)(F)F)ccc1Cl = 4290
• CCCc1nc(CNC(=O)c2cnc(OCC(F)(F)F)c(-c3ccc(Cl)cc3)c2)cs1 = 900
• CC(C)c1cc(CNC(=O)c2ncc(OCC(F)(F)F)c(-c3ccc(Cl)cc3)n2)on1 = 1020
• CC(C)c1cc(CNC(=O)c2ccc(OCC(F)(F)F)c(-c3ccc(Cl)cc3)n2)on1 = 860
• Cc1ccc(-c2cc(C(=O)NCc3nc(C(F)(F)F)no3)cnc2OCC(F)(F)F)cc1Cl = 3130
• COc1cc(CNC(=O)c2cnc(O[C@@H](C)C(F)(F)F)c(-c3ccc(Cl)cc3)c2)on1 = 770
• COc1cc(CNC(=O)c2ncc(OCC(F)(F)F)c(-c3ccc(Cl)c(Cl)c3)n2)on1 = 1470
• O=C(NCc1nc(C(F)(F)F)no1)c1cc(-c2ccc(Cl)cc2)c(OCC(F)(F)F)nn1 = 780
